Tested on: MS2 coat protein
ASSAY_PROTOCOL: apparent KD of MS2 coat protein; designed switch direction (-1 OFF switch, 1 ON switch): -1; higher = weaker reporter binding
CONDITIONS_USED: Eterna round: R95; input ligand: microRNA oligo, concentration not stated
MEASURED_PARAMETER: apparent KD of MS2 coat protein (nM)
The response must be a number in nM with no trailing unit.

Recorded results for 3 sequences are shown here.
[
  {
    "SEQUENCE_ENTRY": "AAGAAACAUGAGGAUCACCCAUGUGAGGAUAUGAUAAAGAAAAGAAAAGAAAGAAGAUUCAGAAGGCACAAAGG [salish99-ex1_r3_034] (puzzle: Exclusion 1)",
    "apparent KD of MS2 coat protein / nM": 39.4
  },
  {
    "SEQUENCE_ENTRY": "CUAGAGCGAGGAUAUACAUGAGGAUCACCCAUGUGGCAGCCGGGUAGGAGUGACGUCGGUAGAAGGCGCACCCG [Anrate] (puzzle: Exclusion 3)",
    "apparent KD of MS2 coat protein / nM": 33.2
  },
  {
    "SEQUENCE_ENTRY": "CGUGACUGAGGAUAUCUAUAAUAUCACAUGAGGAUCACCCAUGUCCAGCGAAAGCUGGAGGGAGAAGGCAGUCACG [Fiskers Ex 5 - 29] (puzzle: Exclusion 5)",
    "apparent KD of MS2 coat protein / nM": 127
  }
]

Incoming: Need apparent KD of MS2 coat protein of GUAAAGUGAGGAUAUGGUAAAUUAAUUAUUAAUUAAUUAAUCCAGAAGGCACAUGAGGAUCACCCAUGUAUAUG [Mat - Exclusion 4 - D88] (puzzle: Exclusion 4) , thanks.
Outgoing: 30

Incoming: Value lookup for apparent KD of MS2 coat protein; key = UUUUAGAGAGGAUAUAUAUUGUGAAACAUGAGGAUCACCCAUGUAAUAAUAUGGAUAUAAAUAGAAGGCUCAUUUA [Mat - Exclusion 5 - JL mod - D8] (puzzle: Exclusion 5)
Outgoing: 26.9

Incoming: apparent KD of MS2 coat protein lookup needed for ACCUUACAUGAGGAUCACCCAUGUCAGGAUAUCUCGGACGGCUGAAAACCAACCGUCCAGAGAAGGGACGAGGA [Solamaso] (puzzle: Exclusion 1) , thanks.
Outgoing: 12.5

Incoming: Give the measured apparent KD of MS2 coat protein of UAGAUGGCUCAGGAUAUUUGCCAACUAACUCGCGAAGAAGGGAGCACAUGAGGAUCACCCAUGUGAUCGAACGG [Rila] (puzzle: Exclusion 6) .
Outgoing: 16.3

Incoming: Which apparent KD of MS2 coat protein value is on record for AAUAUGUGAGGAUAUCAGGUGUGCUAGCGUACUGGUACAUCUGAGAAGGCACAUGAGGAUCACCCAUGUAUCUU [Mat - Exclusion 4 - Mod of JL - D45] (puzzle: Exclusion 4) ?
Outgoing: 24.3

Incoming: Param item = UAUUAACAAGCAAGAUCCCACAUGAGGAUCACCCAUGUGCUCGUCUUGUAAGGUACUGUGACGAAAGUCACGGUACC [Sensor 3, v1 - 84] (puzzle: Sensor v3, turn-off variant 1) ; retrieve measured apparent KD of MS2 coat protein.
Outgoing: 41

Incoming: Looking for the measured apparent KD of MS2 coat protein of UAGAUGGGAGGAUAUACAUAGAUACAGAUUCAUGUAGUGCUACAUGAGGAUCACCCAUGUAGAAGGCCCGUCUU [JL-ex2-2.18 Mayanne mod] (puzzle: Exclusion 2) , can you help?
Outgoing: 31.6

Where these numbers come from: the supplement of paper PMC9170038
